Values were extracted from ChEMBL document CHEMBL1201862.

system: LOX IMVI; assay: NCI tumour cell line growth inhibition, 48 h
Calls of active or inactive are those of the source. Rule as the data show it: active = GI50 up to about 1.1 µM and inactive = higher.
Measured Endpoint: GI50

compound=C[C@]12CCC(=O)C(O)=C1CC[C@@H]1[C@@H]2CC[C@]2(C)C(=O)CC[C@@H]12 observed_value="> 100 µM (inactive)"

Req: Please tell me the measured GI50 for O=NN1C(c2ccccc2)CCCC1c1ccccc1 (stereo unspecified) ; system: LOX IMVI.
Resp: 74.8 µM (inactive)

Req: Name the value of GI50 reported for CCc1cccc(C(C)C)c1NC(=O)C(=O)C1C(=O)NC(=O)NC1=O when tested on LOX IMVI.
Resp: > 100 µM (inactive)

* * *

tested on: LOX IMVI; test: NCI tumour cell line growth inhibition, 48 h
The source made the active and inactive calls. Rule as the data show it: active = GI50 up to about 1.1 µM and inactive = higher.
Could you please pick one outcome from this set? active, inactive

Examples with answers:
molecule=COc1cc(S(=O)(=O)Nc2nc(-c3ccc(/N=C/c4ccccc4O)cc3)cs2)ccc1Cl qualitative_label=inactive
molecule=CC(C)C[C@H](NC(=O)CCc1cccc2ccccc12)B(O)O qualitative_label=active
molecule="CNC1C(O)CC(OC2C/C=C(\\C)C/C(C)=C/C=C/CCC(C)CNC(=O)/C=C/C=C/C2C)OC1C (stereo not drawn)" qualitative_label=active
molecule="CC(=O)OCC1OC(OCCCCCCO)C(OC(C)=O)C(OC(C)=O)C1OC(C)=O (stereo not drawn)" qualitative_label=inactive
molecule=CN(C)CCCNc1ccc([N+](=O)[O-])c2nc3ccccc3c(N)c12 qualitative_label=active

Req: Give the logged outcome of this assay for the following molecule: CCN(CC)CCCn1c(=O)c2ccccc2n2c3c(=O)n(C)c(=O)n(C)c3nc12
Resp: inactive

Req: Please indicate how the test categorized O=C1C2CC=CCC2C(=O)N1n1c(-c2ccccc2)n[nH]c1=O (stereo not drawn) .
Resp: inactive

Req: Kindly provide the recorded test outcome for the following molecule: CCC(=O)Nc1ccc(NCC(=O)Nc2ccc(Cl)cc2)cc1
Resp: inactive

Req: Hi team, can someone confirm the assay call for O=C(c1cccs1)c1nccc2c1cnc1ccccc12 ?
Resp: inactive

Req: Hi team, can someone confirm the assay call for CC[C@H]1C=CCC[C@@]2(C[C@@H]3CC[C@H]4[C@@H](C(=O)OCCCCCCCCCCCCCCCC(=O)N(CCCN)C[C@@H](O)CCN)[C@@]5(CCC[C@@H](C)O5)NC(=[N+]34)N2)O1 ?
Resp: inactive

Req: How was CCCCCCCCOCC(CO)OCCCCCCCC (stereo not drawn) classified in this test?
Resp: inactive

Req: State the result this test recorded for CCN(CC)C(=S)/N=C(\SC(=S)N(CC)CC)c1ccccc1 .
Resp: inactive

Req: Hi, do you know how COC(=O)C1CCC(=O)N1C(c1ccccc1)c1cc(OC)c(OC)c(OC)c1 (stereo not drawn) came out in this test?
Resp: inactive

Req: Which outcome was assigned to COC(=O)C1([C@@H]2C[C@@H](O)[C@]3(C)CC/C=C(\C)CCC[C@H](C)[C@H](O)[C@@H]2O3)CC1 in this test?
Resp: inactive

Req: Would you mind telling me which call this test gave COc1ccc(N2C(=O)C(=O)N(c3ccc(/N=N\c4ccccc4)cc3)C2=S)cc1 ?
Resp: inactive

Req: What was the test verdict on CCOC(=O)/C=C(/C(=O)OCC)n1ccc(=O)n(Cc2cn(CCCCOC(C)=O)nn2)c1=O ?
Resp: inactive

Req: # lookup: test call for CCOC(OC1=C(C#N)CCC1)C(C)[Se]c1ccccc1 (stereo not drawn)
Resp: inactive

Req: In this assay, the call recorded for Cc1cc2[nH]c(=NS(=O)(=O)c3cc(C)c(Cl)cc3S)[nH]c2cc1C was what?
Resp: inactive

Req: Please let me know the test result on file for CC[C@]1(Cc2ccc(OC)c(OC)c2)C=[N+]([O-])O[C@H](OC2CCCCC2c2ccccc2)[C@@H]1OC(C)=O (stereo partly drawn) .
Resp: inactive

Req: Could you check what this test reported for CCN(CC)CCCC(C)NC(=O)c1cc(-c2nccn2C)nc2ccc(C)cc12 (stereo not drawn) ?
Resp: inactive

Req: What classification did O=CC(O)C(O)C1OC(=O)c2cc(O)c(O)c(O)c2C2=C(O)C(O)=C3OC(=O)c4c(c(O)c(O)c5c4C3C2C(=O)O5)-c2c(cc(O)c(O)c2O)C(=O)OCC1O (stereo not drawn) end up with in this test?
Resp: inactive

Req: Please let me know the test result on file for Cc1c(C)c(C)c(-n2c(=O)n(C)c(=O)n2C(C)(C)C)c(C)c1C .
Resp: inactive

Req: # fetch the recorded call for c1ccc2c(c1)CCC/C2=N\OCC1CO1 (stereo not drawn) here
Resp: inactive

Req: Which result was noted for this molecule in the test: CC1OC(OC2C(O)COC(OC3C(C)OC(OC4C(OC(=O)[C@]56CCC(C)(C)C[C@@H]5C5=CCC7[C@@]8(C)C[C@H](O)[C@H](OC9OC(CO)C(O)C(OC%10OC(CO)C(O)C(O)C%10O)C9O)[C@@](C)(CO)[C@@H]8CC[C@@]7(C)[C@]5(C)CC6)OCC(O)C4O)C(O)C3OC3OCC(O)(CO)C3O)C2O)C(O)C(O)C1O (stereo partly drawn)
Resp: inactive

Req: Could you please tell me the result logged for CC1OC2(CC(OCc3ccccc3)C1OCc1ccccc1)OCCO2 (stereo not drawn) in this assay?
Resp: inactive

Req: Lab log entry: CCC(C)NC(=S)N/N=C(\C)c1ccccn1 (stereo not drawn) — outcome as called in the assay?
Resp: active
